Where these numbers come from: patent US20260274981A1

Measurement Target: T1, recombinant human TfR (2474-TR, R&D Systems), biotinylated (human, UniProt P02786 89-760, biotinylated with EZ-Link NHS-PEG4-Biotinylation Kit)
T1 construct: Bought protein; also called immobilized recombinant human TfR; biotinylated human TfR
T1 sequence (P02786 89-760 limits assumed): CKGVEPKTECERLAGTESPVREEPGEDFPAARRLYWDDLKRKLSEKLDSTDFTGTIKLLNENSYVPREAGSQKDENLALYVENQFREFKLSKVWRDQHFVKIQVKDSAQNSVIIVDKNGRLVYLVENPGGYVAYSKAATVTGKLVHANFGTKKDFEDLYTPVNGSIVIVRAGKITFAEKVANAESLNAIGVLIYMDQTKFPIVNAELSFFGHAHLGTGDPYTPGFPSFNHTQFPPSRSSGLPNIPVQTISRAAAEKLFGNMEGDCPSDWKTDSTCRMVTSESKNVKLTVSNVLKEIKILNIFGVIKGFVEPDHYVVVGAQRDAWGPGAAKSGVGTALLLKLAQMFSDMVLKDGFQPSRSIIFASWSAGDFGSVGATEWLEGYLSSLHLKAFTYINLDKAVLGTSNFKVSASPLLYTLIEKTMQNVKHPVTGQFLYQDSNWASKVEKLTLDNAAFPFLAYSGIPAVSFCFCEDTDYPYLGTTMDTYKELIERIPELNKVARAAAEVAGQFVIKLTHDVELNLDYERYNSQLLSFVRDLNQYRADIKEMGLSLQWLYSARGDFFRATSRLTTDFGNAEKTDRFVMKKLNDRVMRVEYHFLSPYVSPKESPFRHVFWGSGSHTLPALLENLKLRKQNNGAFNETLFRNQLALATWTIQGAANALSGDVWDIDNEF
Assay Summary: SPR (Biacore), biotinylated human TfR captured on an SA chip, VHH injected, 1:1 dissociation fit, pH 7.4
Readout Label: koff (s⁻¹)

// worked examples, koff included
Query: What measured koff goes with BBB00708 (VHH, Histidine mutant) VHH: EVQLVESGGGSVQPGGSLRLSCTASGRTFNYAMGWFRQAPGKNREFVATIDWKHGSSYYLDSVRGRFTIERDDAKNTVYLQMNSLRPEDAAVYTCAVGDGDYCSTYTCAAEVEYDYWGQGTLVTVSS ?
Reply: 0.00547

Query: What measured koff goes with BBB00707 (VHH, Histidine mutant) VHH: EVQLVESGGGSVQPGGSLRLSCTASGRTFNYAMGWFRQAPGKNREFVATIDWHDGSSYYLDSVRGRFTIERDDAKNTVYLQMNSLRPEDAAVYTCAVGDGDYCSTYTCAAEVEYDYWGQGTLVTVSS ?
Reply: 0.00439

1 = BBB00716 (VHH, Histidine mutant) VHH: EVQLVESGGGSVQPGGSLRLSCTASGRTFNYAMGWFRQAPGKNREFVATIDWKDGSSYYLDSVRGRFTIERDDAKNTVYLQMNSLRPEDAAVYTCAVGDGHYCSTYTCAAEVEYDYWGQGTLVTVSS
2 = BBB00728 (VHH, Histidine mutant) VHH: EVQLVESGGGSVQPGGSLRLSCTASGRTFNYAMGWFRQAPGKNREFVATIDWKDGSSYYLDSVRGRFTIERDDAKNTVYLQMNSLRPEDAAVYTCAVGDGDYCSTYTCAAEVEYHYWGQGTLVTVSS
Query: Looking at recorded values for koff, does 1 or 2 come in lower? Pick one and reply with its label.
Reply: 1
